measured.target: HLA-B*27:05
measurement.description: IEDB peptide-MHC binding, purified MHC/direct/fluorescence; filed as Kd, often an IC50 or EC50 that approximates it; bounds were set here for any values at or beyond the usual limits of such assays
settings: source organism: Mycobacterium avium 104

{"primary.sequence": "VRDVVMPAL", "measured.target": "HLA-B*27:05", "Kd": "≥ 20 µM"}

----------
measured.target: HLA-B*57:01
measurement.description: IEDB peptide-MHC binding, purified MHC/competitive/fluorescence; filed as Kd, often an IC50 or EC50 that approximates it; bounds were set here for any values at or beyond the usual limits of such assays
settings: source organism: Vibrio parahaemolyticus K5030
pKd: −log10 of the molar value.

{"primary.sequence": "LQNFCQHLV", "measured.target": "HLA-B*57:01", "pKd": "≤ 4.70"}
